ASSAY PROTOCOL: Midazolam PK when administered with midostaurin
CONDITION SET: human, plasma, oral, 4 mg, C max, adjusted geometric mean, plasma; Midazolam (day 8), n = 18
MEASURED ENDPOINT: Cmax (ng/mL)

- MOL: "Cc1ncc2n1-c1ccc(Cl)cc1C(c1ccccc1F)=NC2"
  MEASURED RESULT: 12.2

====

ASSAY PROTOCOL: Midostaurin PK when administered with rifampicin
CONDITION SET: human, plasma, oral, AUC0–inf, adjusted geometric mean, plasma; Placebo + midostaurin arm (midostaurin 50 mg once), rifampicin study, n = 20

- COMPOUND: "CO[C@@H]1[C@H](N(C)C(=O)c2ccccc2)C[C@H]2O[C@]1(C)n1c3ccccc3c3c4c(c5c6ccccc6n2c5c31)C(=O)NC4 [Midostaurin]"
  AUC(0-inf) (ng·h/mL): 22800
